Measurement target: T1, 5-HT1D receptors in guinea pigs (guinea pig, UniProt Q60484 1-376)
T1 construct: Native tissue; preparation not described
T1 sequence (Q60484 whole entry): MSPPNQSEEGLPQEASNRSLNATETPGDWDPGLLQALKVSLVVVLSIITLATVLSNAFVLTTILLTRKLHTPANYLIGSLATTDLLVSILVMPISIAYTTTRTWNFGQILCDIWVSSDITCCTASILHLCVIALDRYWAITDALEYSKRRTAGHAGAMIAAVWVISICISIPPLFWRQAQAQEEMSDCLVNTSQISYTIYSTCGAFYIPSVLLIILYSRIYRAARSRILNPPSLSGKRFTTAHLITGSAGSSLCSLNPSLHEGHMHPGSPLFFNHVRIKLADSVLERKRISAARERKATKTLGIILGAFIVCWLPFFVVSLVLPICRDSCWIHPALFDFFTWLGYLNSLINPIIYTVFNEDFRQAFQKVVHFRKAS
Assay overview: inhibition of [3H]5-HT binding to 5-HT1D receptors, guinea pig
Measurement label: IC50 (nM)
Response body: numeric value in nM, unit text excluded.

Enquiry: What measured IC50 goes with LSAL (also called LSAL; the peptide) [Leu-Ser-Ala-Leu] ?
Return: 0.01
